# SYSTEM NAME: hP2X2/3H (Homo sapiens, UniProt P56373+Q9UBL9)
# Construct: expressed in transfected cells; host or cells: e.g. HEK293 or 1321N1
# Sequence (Q9UBL9 whole entry, one chain of several): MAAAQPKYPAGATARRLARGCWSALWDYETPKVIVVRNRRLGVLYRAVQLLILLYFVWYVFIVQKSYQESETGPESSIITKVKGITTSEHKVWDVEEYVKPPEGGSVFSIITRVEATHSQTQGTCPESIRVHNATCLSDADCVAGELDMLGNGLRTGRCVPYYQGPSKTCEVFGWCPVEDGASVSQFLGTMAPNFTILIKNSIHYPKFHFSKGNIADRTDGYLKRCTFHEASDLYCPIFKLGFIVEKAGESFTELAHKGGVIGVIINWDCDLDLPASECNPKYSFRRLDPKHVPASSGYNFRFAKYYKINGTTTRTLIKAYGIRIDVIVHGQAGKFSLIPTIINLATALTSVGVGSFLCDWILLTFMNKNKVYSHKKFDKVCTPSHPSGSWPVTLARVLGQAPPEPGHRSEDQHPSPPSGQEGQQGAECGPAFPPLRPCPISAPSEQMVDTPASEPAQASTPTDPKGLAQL
# ASSAY TEXT: Calcium uptake assay (P2X antagonist assay), P2X2/3 heteromer
# Assay type: cell-based
# MEASUREMENT SETUP: calcium uptake assay, hP2X2/3H; read-out: IC50 hP2X2/3H (nM), Ca Influx
REPORTED ENDPOINT: IC50

Examples with their reported IC50 follow.
MOLECULE	REPORTED ENDPOINT	RESULT
Cc1ccc(-c2cc(C(=O)NCc3ccc(C(F)(F)F)nc3)cc(C(=O)N3CC(O)C3)c2)cc1	IC50	< 100 nM
Cc1ccc(-c2cc(C(=O)N[C@H](C)c3ccc(C)nc3)cc(S(=O)(=O)C(C)C)c2)cc1	IC50	< 100 nM
Cc1ccc(-c2cc(C(=O)N[C@H](C)c3ccc(C(F)(F)F)nc3)cc(C(=O)N3CC[C@@H](O)C3)c2)cc1	IC50	< 100 nM

Just so you know, measured IC50 for Cc1ccc(-c2cc(C(=O)NC(C)c3csc(C)n3)cc(C(=O)N3CCCC3)c2)nc1 (stereo not shown) came out at 100 to 500 nM

---

# IC50 per entry
# SYSTEM NAME: hP2X2/3H (Homo sapiens, UniProt P56373+Q9UBL9)
# Construct: expressed in transfected cells; host or cells: e.g. HEK293 or 1321N1
# ASSAY TEXT: Calcium uptake assay (P2X antagonist assay), P2X2/3 heteromer
# Type: cell-based
# MEASUREMENT SETUP: calcium uptake assay, hP2X2/3H; read-out: IC50 hP2X2/3H (nM), Ca Influx

COMPOUND	IC50
CCCS(=O)(=O)c1cc(C(=O)NCc2ccc(C(F)(F)F)nc2)cc(-c2ccc(C)cc2)c1	100 to 500 nM
Cc1ccc(-c2cc(C(=O)N[C@H](C)c3cnc(C)nc3)cc(S(C)(=O)=O)c2)cc1	< 100 nM
COc1ncc([C@@H](C)NC(=O)c2cc(-c3ccc(C)cc3)cc(S(C)(=O)=O)c2)cn1	100 to 500 nM
CCCS(=O)(=O)c1cc(C(=O)N[C@@H](C)CO)cc(-c2ccc(C)cc2)c1	> 1000 nM

What the record says about Cc1ccc(-c2cc(C(=O)NCc3cnc(C(C)C)nc3)cc(C(=O)N3CCCC3)c2)cc1 : IC50 is > 1000 nM

Query Cc1ccc(-c2cc(C(=O)NCc3cnc(C)nc3)cc(S(C)(=O)=O)c2)c(C#N)c1 yields IC50 of 100 to 500 nM

Per the records, this compound ( Cc1ccc(-c2cc(C(=O)NCc3ncc(C(F)(F)F)cc3Cl)cc(C(=O)N3CC(O)C3)c2)cc1 ) has IC50 equal to < 100 nM

// recorded IC50 for Cc1ccc(-c2cc(C(=O)NC(C)c3ccc(C)nc3)cc(C(=O)N3CCCC3)c2)nc1 (stereo not shown) : < 100 nM

// Cc1ccc(-c2cc(C(=O)N[C@H](C)c3cnn(CC(F)(F)F)c3C)cc(C(=O)N3CCCC3)c2)cc1 : IC50 value = > 1000 nM

get_value(item= Cc1ccc(-c2cc(C(=O)NCC(C)C)cc(C(=O)N[C@@H](C)CO)c2)cc1 , readout=IC50) returns > 1000 nM

Value of measured IC50 for the entry Cc1ccc(-c2cc(C(=O)N[C@H](CCO)c3ccc(C)nc3)cc(C(=O)N(C)CC(C)C)c2)cc1 : 100 to 500 nM

Short answer for Cc1ccc(-c2cc(C(=O)NCc3ccc(C)nc3)cc(C(=O)N(C)[C@H]3CCNC3)c2)cc1 : IC50 was 100 to 500 nM

Note to self: IC50 recorded for Cc1ccc(-c2cc(C(=O)NCc3ccc(C)nc3)cc(C(=O)N3CCc4ccccc43)c2)cc1 was < 100 nM

Per the record, Cc1ccc(-c2cc(C(=O)NCc3cnc(C)nc3)cc(C(=O)N3CCCCCC3)c2)cc1 has IC50 of < 100 nM

// recorded IC50 for Cc1ccc(-c2cc(C(=O)NCc3cnc(C)cn3)cc(C(=O)N3CCCC3)c2)cc1 : < 100 nM

The value of IC50 measured for the compound CCOC(=O)c1cc(C(=O)NCc2ccc(C)nc2)cc(-c2ccc(C)cc2)c1 turned out to be < 100 nM

Notebook: Cc1ccc(-c2cc(C(=O)N[C@@H](C)CO)cc(S(C)(=O)=O)c2)cc1 , IC50 read as > 1000 nM

Sample Cc1ccc(-c2cc(C(=O)NCc3ccc(C(F)(F)F)nc3)cc(C(=O)N3CC(O)C3)c2)c(C#N)c1 ; IC50 observed: < 100 nM

Entry CCOC(=O)c1cc(C(=O)N[C@@H](C)CO)cc(-c2ccc(C)cc2)c1 — recorded IC50 = 501 to 1000 nM

// recorded IC50 for Cc1ccc(-c2cc(C(=O)NCc3ccc(C)nc3)cc(C(=O)N3CCCc4ccccc43)c2)cc1 : 100 to 500 nM

---

# SYSTEM NAME: hP2X3 (Homo sapiens, UniProt P56373)
# Construct: expressed in transfected cells; host or cells: e.g. HEK293 or 1321N1
# ASSAY TEXT: Calcium uptake assay (P2X antagonist assay), P2X3 homomer
# Type: cell-based
# MEASUREMENT SETUP: calcium uptake assay, hP2X3; read-out: IC50 hP2X3 (nM), Ca Influx
Recorded IC50, one value per entry.

MOLECULE	IC50
Cc1ccc(-c2cc(C(=O)NCc3ccc(Cl)c(-n4cnnc4)c3)cc(C(=O)N3CCCC3)c2)cc1	< 100 nM
Cc1ncc(CNC(=O)c2cc(C(=O)N3CCCC3)cc(-c3ccc(F)cc3)c2)cn1	100 to 500 nM
Cc1ccc(-c2cc(C(=O)NC(C)c3csc(C)n3)cc(C(=O)N3CCCC3)c2)nc1 (centres unmarked)	< 100 nM
Cc1ccc(-c2cc(C(=O)O)cc(C(=O)NCc3ccc(C)nc3)c2)cc1	100 to 500 nM
Cc1ccc(-c2cc(C(=O)NCc3cnc(C)nc3)cc(C(=O)N3CCCC3)c2)cc1	< 100 nM
Cc1ccc(-c2cc(C(=O)NCc3ccc(C)nc3)cc(C(=O)N3CCNCC3)c2)cc1	< 100 nM
Cc1ccc(-c2cc(C(=O)N[C@H](C)c3ccc(C)nc3)cc(C(=O)N3CCCC3)c2)cc1	< 100 nM

// recorded IC50 for Cc1ccc(-c2cc(C(=O)N[C@@H](C)CO)cc(C(=O)N[C@@H](C)CO)c2)cc1 : > 1000 nM

---

# SYSTEM NAME: hP2X3 (Homo sapiens)
# Construct: expressed in transfected cells; host or cells: e.g. HEK293 or 1321N1
# Sequence (P56373 1-397): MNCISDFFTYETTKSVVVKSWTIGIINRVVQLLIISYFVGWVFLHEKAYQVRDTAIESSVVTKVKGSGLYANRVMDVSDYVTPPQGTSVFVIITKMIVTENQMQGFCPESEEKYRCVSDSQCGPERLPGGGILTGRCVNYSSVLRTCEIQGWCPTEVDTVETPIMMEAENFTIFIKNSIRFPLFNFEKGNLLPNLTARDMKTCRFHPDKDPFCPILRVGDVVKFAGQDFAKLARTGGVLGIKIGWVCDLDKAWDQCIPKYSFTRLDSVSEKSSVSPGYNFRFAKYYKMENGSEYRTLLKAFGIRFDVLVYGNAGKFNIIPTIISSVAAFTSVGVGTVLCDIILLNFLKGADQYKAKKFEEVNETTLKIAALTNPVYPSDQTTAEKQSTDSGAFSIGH
# ASSAY TEXT: Calcium uptake assay (P2X antagonist assay), P2X3 homomer
# Type: cell-based
# MEASUREMENT SETUP: calcium uptake assay, hP2X3; read-out: IC50 hP2X3 (nM), Ca Influx
REPORTED ENDPOINT: IC50

COMPOUND	IC50
Cc1ccc(-c2cc(C(=O)NCc3ccc(C)nc3)cc(C(=O)N3Cc4ccccc4C3)c2)cc1	100 to 500 nM
Cc1ccc(-c2cc(C(=O)NCc3ccc(C)nc3)cc(S(C)(=O)=O)c2)cc1	< 100 nM
Cc1ccc(-c2cc(C(=O)NCc3ccc(C)nc3)cc(C(=O)N3C[C@H]4CNC[C@H]4C3)c2)cc1	100 to 500 nM

For this compound ( Cc1ccc(CNC(=O)c2cc(-c3ccc(C)c(F)c3)cc(S(C)(=O)=O)c2)cn1 ), measured IC50 is 100 to 500 nM

Field IC50 (entry Cc1ccc(-c2cc(C(=O)NC(C)c3csc(C)n3)cc(C(=O)N3CCCC3)c2)cc1 (centres unmarked) ) reads < 100 nM

Consider Cc1ccc(-c2cc(C(=O)N[C@H](C)c3cnc(C)nc3)cc(C(=O)N3CCCC3)c2)cc1 . Its measured IC50 is < 100 nM

Entry Cc1ccc(-c2cc(C(=O)N[C@H](C)c3cnn4c3COCC4)cc(C(=O)N3CCCC3)c2)cc1 ; IC50 = 100 to 500 nM

Record Cc1ccc(-c2cc(C(N)=O)cc(C(=O)NCc3ccc(C)nc3)c2)cc1 . Reported IC50: < 100 nM
